Biological target: T1, RESTV GP on rVSV particles (Reston virus (RESTV), UniProt Q66799 34-677)
T1 sequence: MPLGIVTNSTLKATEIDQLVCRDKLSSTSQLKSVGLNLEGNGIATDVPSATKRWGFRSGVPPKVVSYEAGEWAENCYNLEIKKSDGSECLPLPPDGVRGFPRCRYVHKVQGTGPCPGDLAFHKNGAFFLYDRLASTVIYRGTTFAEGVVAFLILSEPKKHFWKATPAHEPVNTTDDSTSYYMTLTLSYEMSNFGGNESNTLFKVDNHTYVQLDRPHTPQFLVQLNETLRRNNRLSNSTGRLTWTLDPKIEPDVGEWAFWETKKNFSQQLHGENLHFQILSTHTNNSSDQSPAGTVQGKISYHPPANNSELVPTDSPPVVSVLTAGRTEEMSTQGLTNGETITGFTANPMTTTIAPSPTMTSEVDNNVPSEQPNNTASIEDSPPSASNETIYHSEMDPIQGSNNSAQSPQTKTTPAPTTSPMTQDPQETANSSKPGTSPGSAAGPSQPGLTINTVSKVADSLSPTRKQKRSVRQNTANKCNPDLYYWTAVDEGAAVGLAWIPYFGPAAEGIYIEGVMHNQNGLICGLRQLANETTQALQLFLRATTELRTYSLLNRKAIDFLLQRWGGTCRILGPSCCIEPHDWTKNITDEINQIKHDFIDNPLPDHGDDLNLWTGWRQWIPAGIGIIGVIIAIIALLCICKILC
Assay: cell-based or functional assay
property-name: IC50 (nM), neutralization of rVSV-GP
Please give a number only; it is taken to be in nM.

Input line: So what's the measured IC50 (nM), neutralization of rVSV-GP for this one? PE-87 Y111A (antibody, V domains shown) VH: QVQLVQSGVTLVQPGGSLRVSCAASGFTFSSYAMSWVRQAPGKGLEWVSAISGLGGSTYYADSVKGRFTISRDNSKNTLYLQMNSLRAEDTAVYYCAKDHRVWAAGYHFDAWGQGALVTVSS VL: DIVLTQSPSTLSASVGDRVTITCRASQSISSWLAWYQQKPGEAPKLLISDASSLESGVPSRFSGSGSGTEFTLTISSLQPDDFATYYCQQYYSSPTFGGGTKVEIK
Output line: 0.1

Input line: So what's the measured IC50 (nM), neutralization of rVSV-GP for this one? PE-87 D110A (antibody, V domains shown) VH: QVQLVQSGVTLVQPGGSLRVSCAASGFTFSSYAMSWVRQAPGKGLEWVSAISGLGGSTYYADSVKGRFTISRDNSKNTLYLQMNSLRAEDTAVYYCAKDHRVWAAGYHFAYWGQGALVTVSS VL: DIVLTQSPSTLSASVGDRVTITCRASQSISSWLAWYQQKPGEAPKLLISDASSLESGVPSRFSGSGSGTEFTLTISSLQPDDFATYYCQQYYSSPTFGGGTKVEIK
Output line: 0.4

Input line: So what's the measured IC50 (nM), neutralization of rVSV-GP for this one? PE-87 F109A (antibody, V domains shown) VH: QVQLVQSGVTLVQPGGSLRVSCAASGFTFSSYAMSWVRQAPGKGLEWVSAISGLGGSTYYADSVKGRFTISRDNSKNTLYLQMNSLRAEDTAVYYCAKDHRVWAAGYHADYWGQGALVTVSS VL: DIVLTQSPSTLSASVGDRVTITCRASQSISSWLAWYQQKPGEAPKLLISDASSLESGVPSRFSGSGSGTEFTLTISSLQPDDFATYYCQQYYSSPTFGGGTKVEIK
Output line: 0.4
